meta.source: PubChem BioAssay AID720706

assay: GFP drop in mixed WT/humanized-ribosome E. coli culture – GFP/RFP fluorescence, OD600, single point, bacterial rRNA inhibitor project, primary screen (AID 720706); conditions: E. coli WT GFP vs humanized-ribosome RFP mutants, 24 h; measured here: OD600 growth, DMSO median 0, no signal -100
In all, about 350,000 compounds went through this assay and about 5,500 (1.6%) were called active. Only a selection was taken, and actives are over-represented in it overall.
Property Measured: OD600 change (%)
Kindly provide the numeric value in % only, without the unit symbol.

{"Smiles Record": "C[C@@H]1CN([C@H](C)CO)C(=O)c2cccc(NC(=O)CCCCCC(=O)Nc3ccccc3N)c2O[C@H]1CN(C)CC1CCCCC1", "Property Measured": "OD600 change", "Endpoint Value": -30.3}
{"Smiles Record": "C[C@@H]1CN([C@@H](C)CO)C(=O)Cc2cc(NS(=O)(=O)c3ccc(Cl)cc3)ccc2O[C@H]1CN(C)C(=O)Nc1cccc2ccccc12", "Property Measured": "OD600 change", "Endpoint Value": -5.33}

input: Given the entry "COc1ccc(S(=O)(=O)Nc2ccc3c(c2)CC(=O)N([C@@H](C)CO)C[C@@H](C)[C@@H](CN(C)Cc2ccc(C(=O)Nc4ccccc4N)cc2)O3)cc1" , report its measured OD600 change.
output: -12

---

experiment: GFP drop in mixed WT/humanized-ribosome E. coli culture – GFP/RFP fluorescence, OD600, single point, bacterial rRNA inhibitor project, primary screen (AID 720706); conditions: E. coli WT GFP vs humanized-ribosome RFP mutants, 24 h; measured here: RFP humanized mutant strains, DMSO median 0, no signal -100, concentration not given here
About 5,500 (1.6%) of roughly 350,000 compounds were called active. For the sample, actives were picked, then their nearest neighbours and some compounds at random.
Measured RFP signal change by item
Kindly provide the numeric value in % only, without the unit symbol.

{"Compound": "COc1ccc(S(=O)(=O)Nc2ccc3c(c2)CC(=O)N([C@H](C)CO)C[C@H](C)[C@@H](CN(C)C)O3)cc1", "Unit Of Measure": "%", "Endpoint Value": -1.01}
{"Compound": "CO[C@@H]1CN(C)C(=O)c2ccc(NS(C)(=O)=O)cc2OC[C@@H](C)N(C(=O)C2CCOCC2)C[C@@H]1C", "Unit Of Measure": "%", "Endpoint Value": -0.242}
{"Compound": "O=C(O)c1[nH]c2ccccc2c1C(c1cccc(O)c1)c1c(C(=O)O)[nH]c2ccccc12", "Unit Of Measure": "%", "Endpoint Value": 8.53}

input: Given the entry "Cc1nn(-c2ccccc2)c(Cl)c1/C=N/NC(=O)c1nn(C)cc1[N+](=O)[O-]" , report its measured RFP signal change.
output: 0.73

input: Given the entry CC(NC(=O)Nc1cccc([N+](=O)[O-])c1)c1ccc2c(c1)OCO2 (configuration not stated) , report its measured RFP signal change.
output: -5.09

input: Given the entry "CNC(=O)c1ccsc1NC(=O)c1ccc(S(=O)(=O)N2CCc3ccccc32)cc1" , report its measured RFP signal change.
output: -0.575

input: Given the entry "CN1c2ccc(-c3ccccc3F)cc2[C@@H]2[C@@H](CCN2C(=O)CN2CCOCC2)[C@H]1CO" , report its measured RFP signal change.
output: -0.302

input: Given the entry CC1CN(S(=O)(=O)c2ccc(C(=O)Nc3sccc3C(N)=O)cc2)CC(C)O1 (configuration not stated) , report its measured RFP signal change.
output: -4.68

input: Given the entry "COC(=O)c1c(C)oc(C)c1S(=O)(=O)Nc1ccc(C(C)C)cc1" , report its measured RFP signal change.
output: -2.19

input: Given the entry "CNS(=O)(=O)c1cccc(C(=O)OCC(=O)N2c3ccccc3NC(=O)C2(C)C)c1" , report its measured RFP signal change.
output: -1.67

---

assay: GFP drop in mixed WT/humanized-ribosome E. coli culture – GFP/RFP fluorescence, OD600, single point, bacterial rRNA inhibitor project, primary screen (AID 720706); conditions: E. coli WT GFP vs humanized-ribosome RFP mutants, 24 h; measured here: OD600 growth, DMSO median 0, no signal -100
Hit rate of the full screen: of about 350,000 compounds, about 5,500 (1.6%) were called active. What follows is part of a selection rich in actives, with near analogues and random picks from the rest.
Property Measured: OD600 change (%)
Kindly provide the numeric value in % only, without the unit symbol.

Please review the following examples before continuing.
{"Compound": "Cc1cc2ccccn2c1C(=O)c1cccc(S(=O)(=O)N2CCOCC2)c1", "OD600 change [%]": -17.5}
{"Compound": "CCCNC(=O)N1CC(=O)N2[C@H](C1)[C@@H](c1ccc(C#Cc3ccccc3)cc1)[C@@H]2CO", "OD600 change [%]": -70.4}
{"Compound": "Cc1cc2ccccn2c1C(=O)c1cccc(F)c1", "OD600 change [%]": -19.4}
{"Compound": "COc1ccc2c3c([nH]c2c1)[C@@H](CO)N(C(=O)CC1CC1)CC31CCN(Cc2cccnc2)CC1", "OD600 change [%]": 3.97}
{"Compound": "Cc1nc2ccc(NC(=O)c3cccc(S(=O)(=O)N4CCOCC4)c3)cc2s1", "OD600 change [%]": -4.27}

input: Given the entry "CN(C)C(=O)[C@H]1[C@H](CO)[C@H]2Cn3c(ccc(-c4ccc(F)cc4)c3=O)[C@H]2N1C(=O)c1ccccn1" , report its measured OD600 change.
output: 9.51

input: Given the entry "CSc1ccc(CN(C)CC(=O)NCc2ccc(F)cc2)cc1" , report its measured OD600 change.
output: -24.5

input: Given the entry Cc1ccc(SC(C)C(=O)NCc2ccc(F)cc2)cc1 (stereo not given) , report its measured OD600 change.
output: 3.19

input: Given the entry "COc1ccc(NC(=O)Nc2ccc3c(c2)C(=O)N([C@H](C)CO)C[C@H](C)[C@@H](CN(C)Cc2ccccc2)OCCCC[C@H](C)O3)cc1" , report its measured OD600 change.
output: -11

input: Given the entry "CCN(CC(=O)NCc1ccc(F)cc1)S(=O)(=O)c1ccc(Cl)s1" , report its measured OD600 change.
output: -25.1

---

test: GFP drop in mixed WT/humanized-ribosome E. coli culture – GFP/RFP fluorescence, OD600, single point, bacterial rRNA inhibitor project, primary screen (AID 720706); conditions: E. coli WT GFP vs humanized-ribosome RFP mutants, 24 h; measured here: RFP humanized mutant strains, DMSO median 0, no signal -100, concentration not given here
Screen size: about 350,000 compounds; about 5,500 (1.6%) were called active. This is one part of a sample in which actives are shown more often than they occur.
Property Measured: RFP signal change (%)
Kindly provide the numeric value in % only, without the unit symbol.

{"Smiles Record": "Cc1cccc(NC(=O)c2nc(S(=O)(=O)Cc3ccccc3)ncc2Cl)c1", "RFP signal change (%)": -6.12}

input: Given the entry "CCCNC(=O)Nc1ccc2c(c1)C(=O)N(C)C[C@H](OC)[C@H](C)CN(Cc1ccncc1)[C@H](C)CO2" , report its measured RFP signal change.
output: -1.58

input: Given the entry "COc1ccc(NS(=O)(=O)c2ccc(Oc3c(C#N)cccc3C#N)cc2)cc1" , report its measured RFP signal change.
output: -3.93

input: Given the entry "O=C(N[C@H]1CC[C@@H](CCNS(=O)(=O)Cc2ccccc2)O[C@H]1CO)c1ccccc1F" , report its measured RFP signal change.
output: 1.25

input: Given the entry "COc1ccc(NS(=O)(=O)c2ccc(N3CCN(CCO)CC3)c([N+](=O)[O-])c2)cc1" , report its measured RFP signal change.
output: 0.35

input: Given the entry "Cc1cccc(CS(=O)(=O)c2ncc(Cl)c(C(=O)Nc3ccc(F)cc3)n2)c1" , report its measured RFP signal change.
output: -4.49

input: Given the entry "C[C@@H]1CN([C@H](C)CO)C(=O)c2c(c3ccccc3n2C)-c2ccccc2CO[C@@H]1CN(C)Cc1ccccc1C(F)(F)F" , report its measured RFP signal change.
output: -4.51

input: Given the entry "COc1ccc2c3c(n(C)c2c1)[C@@H](CO)N(C)CC31CN(S(=O)(=O)c2cccs2)C1" , report its measured RFP signal change.
output: -0.435

input: Given the entry "CC(=O)Nc1cccc2c1O[C@@H](CN(C)C(C)=O)[C@@H](C)CN(C)C2=O" , report its measured RFP signal change.
output: -0.39

---

test: GFP drop in mixed WT/humanized-ribosome E. coli culture – GFP/RFP fluorescence, OD600, single point, bacterial rRNA inhibitor project, primary screen (AID 720706); settings: E. coli WT GFP vs humanized-ribosome RFP mutants, 24 h; measured here: OD600 growth, DMSO median 0, no signal -100
Screen size: about 350,000 compounds; about 5,500 (1.6%) were called active. The sample holds actives, similar compounds and a random draw of the others, so the mix is not that of the screen.
Measured OD600 change by item
Enter the number, and then the unit.

Please review the following examples before continuing.
{"Smiles Record": "COCC(=O)N1CCC2(CC1)CN(Cc1ccccc1Cl)[C@H](CO)c1c2c2ccc(OC)cc2n1C", "OD600 change": "-2.87%"}
{"Smiles Record": "O=C(Nc1nnc(Cc2ccc(Cl)cc2)s1)c1cccnc1", "OD600 change": "2.81%"}
{"Smiles Record": "O=C(NC1CCCC1)[C@H]1[C@H](CO)[C@H]2Cn3c(cccc3=O)[C@H]2N1C(=O)NC1CCCC1", "OD600 change": "13.7%"}
{"Smiles Record": "CC(C)NC(=O)N(C)C[C@H]1Oc2ccc(NS(C)(=O)=O)cc2C(=O)N(C)C[C@@H]1C", "OD600 change": "2.51%"}
{"Smiles Record": "COc1cccc(-c2coc3cc4oc(=O)c(CC(=O)O)c(C)c4cc23)c1", "OD600 change": "-55.2%"}

input: Given the entry "C[C@@H]1CN([C@H](C)CO)S(=O)(=O)c2ccc(-c3ccccc3)cc2O[C@@H]1CN(C)C(=O)CC1CC1" , report its measured OD600 change.
output: -12.8%

input: Given the entry "CNC[C@H]1Oc2ncccc2C(=O)N(C)C[C@@H]1C" , report its measured OD600 change.
output: 2.62%

input: Given the entry "Cc1coc2cc3oc(=O)c(CCC(=O)O)c(C)c3cc12" , report its measured OD600 change.
output: -10.5%

input: Given the entry "Cc1noc(C)c1NC(=O)N(C)C[C@@H]1Oc2ccc(NC(=O)Nc3ccc(F)cc3)cc2C(=O)N([C@H](C)CO)C[C@@H]1C" , report its measured OD600 change.
output: 1.88%

input: Given the entry "Cc1c(CCC(=O)O)c(=O)oc2cc3occ(-c4ccccc4)c3cc12" , report its measured OD600 change.
output: -27.4%

input: Given the entry "COCCNC(=O)/C(C#N)=C/c1nc(N(C)C)n(-c2ccc(F)cc2)c1Cl" , report its measured OD600 change.
output: 16.1%

input: Given the entry "COCCNC(=O)/C(C#N)=C/c1cccc(OCc2ccccc2)c1" , report its measured OD600 change.
output: -3.28%

input: Given the entry "C[C@@H]1CCCCO[C@H](CN(C)S(=O)(=O)c2ccccc2)[C@@H](C)CN([C@H](C)CO)C(=O)c2cc(NC(=O)Nc3ccc(F)cc3)ccc2O1" , report its measured OD600 change.
output: 5.59%

input: Given the entry "C[C@@H]1CCCCO[C@H](CN(C)Cc2ccc(C(=O)Nc3ccccc3N)cc2)[C@H](C)CN([C@H](C)CO)C(=O)c2cc(N(C)C)ccc2O1" , report its measured OD600 change.
output: 1.72%

input: Given the entry "C[C@@H]1CN(C)C(=O)c2cc([N+](=O)[O-])ccc2O[C@@H]1CN(C)C(=O)OC(C)(C)C" , report its measured OD600 change.
output: 7.21%

input: Given the entry "CCC(=O)Nc1ccc2c(c1)C(=O)N(C)[C@@H]1CC[C@H](CC(=O)NCCc3ccncc3)O[C@@H]1CO2" , report its measured OD600 change.
output: 15.1%

input: Given the entry "COc1ccc(NC(=O)N(C)C[C@H]2OCCCC[C@H](C)Oc3ccc(NC(=O)NC4CCCCC4)cc3C(=O)N([C@@H](C)CO)C[C@@H]2C)cc1" , report its measured OD600 change.
output: 2.03%

input: Given the entry "COc1ccc(CNC(=O)/C(C#N)=C/c2cccc(OC)c2OC)cc1" , report its measured OD600 change.
output: -6.5%
